target: D2 receptor (Rattus norvegicus); assay: biochemical; assay type: binding, rat (Sprague-Dawley); conditions: [3H]-domperidone 0.3 nM, rat striated membranes, 0.01% BSA, 37° C., 30 minutes; read-out: Affinity [K1 (nM)] towards D2 receptor
Sequence (P61169 whole entry): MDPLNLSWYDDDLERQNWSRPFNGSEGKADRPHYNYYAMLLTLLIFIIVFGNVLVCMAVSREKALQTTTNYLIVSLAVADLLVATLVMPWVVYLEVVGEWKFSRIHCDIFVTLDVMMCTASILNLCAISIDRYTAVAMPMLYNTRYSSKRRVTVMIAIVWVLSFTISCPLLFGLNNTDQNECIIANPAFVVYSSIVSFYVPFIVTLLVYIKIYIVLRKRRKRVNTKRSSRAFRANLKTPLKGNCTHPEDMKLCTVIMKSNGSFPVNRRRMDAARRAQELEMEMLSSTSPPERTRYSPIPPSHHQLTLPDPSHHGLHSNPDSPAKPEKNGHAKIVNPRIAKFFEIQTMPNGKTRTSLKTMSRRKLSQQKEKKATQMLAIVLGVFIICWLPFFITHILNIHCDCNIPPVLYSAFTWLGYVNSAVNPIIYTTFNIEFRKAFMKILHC
Exercise: state measured Ki for each of the compounds provided.
One number for each entry, in nM.

Before answering, review these 2 worked examples.
>>> print(df.to_string())
                                   compound  measured_value
0  CCCN(CCCCCCNCCc1ccc2c(c1)OCO2)[C@H]1CCc2c(ccc(O)c2O)C1.Cl.Cl [Compound 2, dihydrochloride]             0.4
1  Br.CCCN(CCCCCCNC(=O)Cc1ccc(O)c(O)c1)[C@H]1CCc2c(ccc(O)c2O)C1 [Compound 34, hydrobromide]             2.1

As a next step, examine the compound that follows.
The recorded Ki for entry CCCN(CCCCCCNCCc1ccccc1OC)[C@H]1CCc2c(ccc(O)c2O)C1.Cl.Cl [Ref. A, dihydrochloride, reference compound] equals 0.8
